- assay.context: 305.65 K; 101 kPa; Liquid
readout.type: mass density (kg/m3)
Answers are plain numbers, in kg/m3.

Take a look at these entries with their results.
smiles	mass density, kg/m3
Cc1ccccc1C	868.65
Cc1ccc(C)cc1	850.148
Cc1cccc(C)c1	853.441
COC(C)(C)C	726.444

API: the following record is the query input.
Quick note, mass density for "CCOC(C)(C)C" landed at 727.038

----------
- assay.context: 313.15 K; 101 kPa; Liquid; Sing-around technique in a fixed-path interferometer
readout.type: speed of sound (m/s)
Answers are plain numbers, in m/s.

Take a look at these entries with their results.
compound	readout.units	speed of sound
Cc1cccc(C)c1 [1,3-dimethylbenzene]	m/s	1259.5
Cc1ccccc1C [1,2-dimethylbenzene]	m/s	1280.6
Cc1ccc(C)cc1 [1,4-dimethylbenzene]	m/s	1246.8
COC(C)(C)C [2-methoxy-2-methylpropane]	m/s	968.16

API: the following record is the query input.
Quick note, speed of sound for CCOC(C)(C)C [2-ethoxy-2-methylpropane] landed at 964.53

----------
- assay.context: 293.15 K; 101 kPa; Liquid; Sing-around technique in a fixed-path interferometer
Kindly state speed of sound for each of the entries shown.
Give bare numbers, in m/s.

Take a look at these entries with their results.
compound	speed of sound (m/s)
Cc1ccc(C)cc1 [1,4-dimethylbenzene]	1326.1
COC(C)(C)C [2-methoxy-2-methylpropane]	1060
CCOC(C)(C)C [2-ethoxy-2-methylpropane]	1053.7
Cc1ccccc1C [1,2-dimethylbenzene]	1362.2

API: the following record is the query input.
Quick note, speed of sound for Cc1cccc(C)c1 [1,3-dimethylbenzene] landed at 1341.7

----------
- assay.context: 323.15 K; 101 kPa; Liquid; Sing-around technique in a fixed-path interferometer
± gives the expanded uncertainty stated by the source.
readout.type: speed of sound
I'd appreciate it if you included the unit after the number.

Take a look at these entries with their results.
compound	readout.type	measurement
COC(C)(C)C [2-methoxy-2-methylpropane]	speed of sound	922.97 ± 2.2 m/s
Cc1ccccc1C [1,2-dimethylbenzene]	speed of sound	1240.9 ± 2.2 m/s
Cc1ccc(C)cc1 [1,4-dimethylbenzene]	speed of sound	1211 ± 2.2 m/s

Kindly give each listed record's speed of sound.
1. CCOC(C)(C)C [2-ethoxy-2-methylpropane]
2. Cc1cccc(C)c1 [1,3-dimethylbenzene]

Result string:
920.73 ± 2.2 m/s
1219.5 ± 2.2 m/s

----------
- assay.context: 323.15 K; 101 kPa; Liquid
# if value of mass density reaches 800 kg/m3, tag yes (1); if it stays below, tag no (0)

Observe how each entry below is paired with its result.
smiles	cat
CCOC(C)(C)C	no (0)
Cc1ccc(C)cc1	yes (1)

Query string: Hi team, for "Cc1cccc(C)c1" , is the recorded mass density at or above 800 kg/m3?
Result string: yes (1)

Query string: Hi team, for "COC(C)(C)C" , is the recorded mass density at or above 800 kg/m3?
Result string: no (0)

Query string: Hi team, for "Cc1ccccc1C" , is the recorded mass density at or above 800 kg/m3?
Result string: yes (1)

----------
Kindly state speed of sound for each of the entries shown.
- assay.context: 303.15 K; 101 kPa; Liquid; Sing-around technique in a fixed-path interferometer
Numbers only, in m/s.

Take a look at these entries with their results.
smiles	readout.type	measurement
COC(C)(C)C	speed of sound	1013.9
Cc1ccc(C)cc1	speed of sound	1285.4
CCOC(C)(C)C	speed of sound	1008.6
Cc1cccc(C)c1	speed of sound	1300.3

API: the following record is the query input.
Quick note, speed of sound for "Cc1ccccc1C" landed at 1321
